- System under test: human androgen receptor (hAR) (Homo sapiens, UniProt P10275)
- Run description: Functional response test: hAR transactivation (luciferase reporter) in HALP2 cells
- Type: cell-based
Measured quantity: KSchild (nM) potency
Provide the reading as a plain figure in nM.

Record excerpt, results attached:
**Query** Check the records and state KSchild (nM) potency for Cc1cc(C#N)ccc1N1C(=O)N(C)C(C)(c2ccc(O)cc2)C1=O (stereo not drawn)
**Result** 69.28

**Query** State, in one line, measured KSchild (nM) potency of CCOC(=O)CCN1C(=O)N(c2ccc(C#N)c(C(F)(F)F)c2)C(=O)C1(C)c1ccc(O)cc1 (stereo not drawn)
**Result** 15

**Query** Output KSchild (nM) potency of CN1C(=O)N(c2ccc([N+](=O)[O-])c(C(F)(F)F)c2)C(=O)C1c1ccc(O)cc1 (stereo not drawn)
**Result** 100

Next:
**Query** Answer with the recorded KSchild (nM) potency for the molecule listed here: Cc1ccc(S(=O)(=O)N2C(=O)N(c3ccc(C#N)c(C(F)(F)F)c3)C(=O)C2(C)c2ccc(O)cc2)cc1 (stereo not drawn)
**Result** 150

---

- System under test: human androgen receptor (hAR) (Homo sapiens)
- Sequence (P10275 1-920): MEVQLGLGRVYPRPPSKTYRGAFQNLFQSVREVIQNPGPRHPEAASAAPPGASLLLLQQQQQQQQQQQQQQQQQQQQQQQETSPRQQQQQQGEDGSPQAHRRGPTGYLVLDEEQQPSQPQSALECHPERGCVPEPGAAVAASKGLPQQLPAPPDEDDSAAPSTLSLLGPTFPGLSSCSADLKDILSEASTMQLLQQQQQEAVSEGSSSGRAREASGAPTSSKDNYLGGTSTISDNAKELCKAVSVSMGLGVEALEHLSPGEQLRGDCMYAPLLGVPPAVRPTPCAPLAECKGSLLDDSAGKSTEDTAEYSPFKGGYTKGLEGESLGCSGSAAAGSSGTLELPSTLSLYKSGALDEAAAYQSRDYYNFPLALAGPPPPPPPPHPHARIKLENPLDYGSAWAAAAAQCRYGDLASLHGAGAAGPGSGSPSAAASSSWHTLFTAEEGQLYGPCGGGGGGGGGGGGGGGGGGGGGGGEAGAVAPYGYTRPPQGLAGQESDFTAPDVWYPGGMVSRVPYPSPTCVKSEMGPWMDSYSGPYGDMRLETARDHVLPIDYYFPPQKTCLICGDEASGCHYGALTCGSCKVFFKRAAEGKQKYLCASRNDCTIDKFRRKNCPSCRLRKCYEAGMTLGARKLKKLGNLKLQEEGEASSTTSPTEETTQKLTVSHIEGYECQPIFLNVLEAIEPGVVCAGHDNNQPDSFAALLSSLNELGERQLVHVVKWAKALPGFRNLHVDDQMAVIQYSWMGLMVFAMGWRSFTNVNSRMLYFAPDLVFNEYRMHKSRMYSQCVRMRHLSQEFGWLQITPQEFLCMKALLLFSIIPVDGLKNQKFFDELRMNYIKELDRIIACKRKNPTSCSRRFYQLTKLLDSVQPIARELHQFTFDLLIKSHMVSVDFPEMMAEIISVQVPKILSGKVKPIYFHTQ
- Run description: Functional response test: hAR transactivation (luciferase reporter) in HALP2 cells
- Format: cell-based
- Condition: antagonism; concentration which increases the EC50 of the DHT by a factor of 2, Schild regression; HALP2 cells
Item-by-item account of KSchild (nM) potency
Provide only the numeric value, understood in nM.

**Query** For C=CCN1C(=O)N(c2ccc(F)c(Cl)c2)C(=O)C1c1ccc(O)cc1 (stereo not shown) , write its KSchild (nM) potency.
**Result** 69.28

**Query** Please indicate KSchild (nM) potency recorded for C=CCN1C(=S)N(c2ccc(Cl)c(Cl)c2)C(=O)C1(C)c1ccc(O)cc1 (stereo not shown)
**Result** 1.41

**Query** Read off the recorded KSchild (nM) potency for C=CCN1C(=O)N(c2ccc(F)c(F)c2)C(=O)C1c1ccc(O)cc1 (stereo not shown)
**Result** 30

// next entry
**Query** Input CC(=O)OCC#CCN1C(=O)N(c2ccc(Cl)c(Cl)c2)C(=O)C1(C)c1ccc(O)cc1 (stereo not shown) , output reported KSchild (nM) potency.
**Result** 12.25

---

This listing pairs molecules with measured KSchild (nM) potency.
- System under test: human androgen receptor (hAR) (Homo sapiens)
- Run description: Functional response test: hAR transactivation (luciferase reporter) in HALP2 cells
- Type: cell-based
Number only, in nM; omit the unit.

// solved cases for KSchild (nM) potency follow
**Query** // fetch KSchild (nM) potency given entry "COCN1C(=O)N(c2ccc(C#N)c(C(F)(F)F)c2)C(=O)[C@@]1(C)c1ccc(O)cc1"
**Result** 4

**Query** Give KSchild (nM) potency for COc1cc(N2C(=O)N(C)C(C)(c3ccc(O)cc3)C2=O)ccc1C#N (stereo not drawn)
**Result** 2.1

**Query** Given Cc1cc(O)ccc1C1(C)C(=O)N(c2ccc(C#N)c(C(F)(F)F)c2)C(=O)N1C (stereo not drawn) , respond with its KSchild (nM) potency.
**Result** 8

**Query** Return the recorded KSchild (nM) potency value; entry: CN1C(=O)N(c2ccc(C#N)c(C(F)(F)F)c2)C(=O)C1c1ccc(O)cc1 (stereo not drawn)
**Result** 9.65

**Query** Hello, please tell me recorded KSchild (nM) potency for this one: C#CCN1C(=O)N(c2ccc(C#N)c(C(F)(F)F)c2)C(=O)C1(C)c1ccc(O)cc1 (stereo not drawn)
**Result** 2.45

Others:
**Query** Provide one value: measured KSchild (nM) potency of Cc1c(N2C(=O)N(C)C(C)(c3ccc(O)cc3)C2=O)ccc(C#N)c1C(F)(F)F (stereo not drawn)
**Result** 3

**Query** Quick one: give measured KSchild (nM) potency for CN1C(=O)N(c2ccc(C#N)c3ccccc23)C(=O)C1(C)c1ccc(O)cc1 (stereo not drawn)
**Result** 800

**Query** Answer with the recorded KSchild (nM) potency for the molecule listed here: C=CCN1C(=S)N(c2ccc(C#N)c(C(F)(F)F)c2)C(=O)C1(C)c1ccc(O)cc1 (stereo not drawn)
**Result** 3.46

**Query** Given the molecule CN(C)CCN1C(=O)N(c2ccc(C#N)c(C(F)(F)F)c2)C(=O)C1c1ccc(O)cc1 (stereo not drawn) , write its reported KSchild (nM) potency.
**Result** 109.54

---

- System under test: human androgen receptor (hAR) (Homo sapiens)
- Run description: Functional response test: hAR transactivation (luciferase reporter) in HALP2 cells
- Assay type: cell-based
- Condition: agonism; HALP2 cells (HeLa, hAR + ARE-luciferase), 20 hours at 37° C.
Catalogue of compounds with associated EC50
// note: answer is a bare numeric in nM

Consider the following illustrative entries.
**Query** # return recorded EC50 for entry CN(C)CCN1C(=O)N(c2ccc(F)c(F)c2)C(=O)C1c1ccc(O)cc1 (centres unmarked)
**Result** 2000

**Query** Name the recorded EC50 of the compound listed here: CCCN1C(=O)N(c2ccc(Cl)c(Cl)c2)C(=O)C1c1ccc(O)cc1 (centres unmarked)
**Result** 54.8

**Query** Let me know recorded EC50 for CCOCCCN1C(=O)N(c2ccc(F)c(F)c2)C(=O)C1c1ccc(O)cc1 (centres unmarked) , thanks.
**Result** 300

**Query** Read the entry CCCN1C(=O)N(c2ccc(F)c(Cl)c2)C(=O)C1c1ccc(O)cc1 (centres unmarked) and write its reported EC50.
**Result** 80

**Query** Input C=CCN1C(=O)N(c2ccc(F)c(C(F)(F)F)c2)C(=O)C1c1ccc(O)cc1 (centres unmarked) , output reported EC50.
**Result** 34.6

**Query** Answer with the recorded EC50 for the compound listed here: N#CCCN1C(=O)N(c2ccc(F)c(F)c2)C(=O)C1c1ccc(O)cc1 (centres unmarked)
**Result** 89.4

More entries:
**Query** // Input: C=CCN1C(=O)N(c2ccc(Cl)c(Cl)c2)C(=O)C1(C)c1ccc(O)cc1 (centres unmarked) . Output its EC50 only.
**Result** 4

**Query** Give the reported value of EC50 for this record: C=CCN1C(=O)N(c2ccc(F)c(F)c2)C(=O)C1c1ccc(O)cc1 (centres unmarked)
**Result** 30

---

Measured quantity: melting point (°C)
API: value field is a number in °C; no unit string.

For orientation, consider the following solved cases.
**Query** Report melting point for CCCN1C(=O)N(c2ccc(C#N)c(C(F)(F)F)c2)C(=O)C1(C)c1ccc(O)cc1 (stereo not shown)
**Result** 125

**Query** Determine from records and report melting point for COCN1C(=O)N(c2ccc(C#N)c(OC)c2)C(=O)C1(C)c1ccc(O)cc1 (stereo not shown)
**Result** 141

**Query** Please supply the value of reported melting point for the item CN1C(=O)N(c2ccc(Cl)c(Cl)c2)C(=O)C1(CO)c1ccc(O)cc1 (stereo not shown)
**Result** 215.6

**Query** Let me know recorded melting point for C#CCC1(c2ccc(O)cc2)C(=O)N(c2ccc(C#N)c(C(F)(F)F)c2)C(=O)N1C (stereo not shown) , thanks.
**Result** 122

***
**Query** Return value of melting point for input CN1C(=O)N(c2ccc(C#N)c(C(F)(F)F)c2)C(=O)C1c1ccc(O)cc1 (stereo not shown) , no commentary.
**Result** 157.4

**Query** Report melting point, nothing else, for this compound: CC#CCN1C(=O)N(c2ccc(C#N)c(C(F)(F)F)c2)C(=O)C1(C)c1ccc(O)cc1 (stereo not shown)
**Result** 172

**Query** Note melting point for the compound shown: "COCN1C(=O)N(c2ccc(C#N)c(C(F)(F)F)c2)C(=O)[C@@]1(C)c1ccc(O)cc1"
**Result** 97

**Query** Input "COc1cc(N2C(=O)N(C)[C@](C)(c3ccc(O)cc3)C2=O)ccc1C#N" , output reported melting point.
**Result** 100
